Just for reference, the OPERA property sets (Mansouri et al. 2018) is where these values come from.

Entries and their logP values follow.
Just the number, please.

// solved cases for logP follow
>  <MOLECULE>
NC(=O)COCc1ccco1

>  <logP>
-0.11

$$$$
>  <MOLECULE>
Oc1ccc(C(c2ccc(O)cc2)c2cccnc2)cc1

>  <logP>
3.13

$$$$
>  <MOLECULE>
CS(=O)(=O)c1cccc(NC(N)=O)c1

>  <logP>
-0.12

$$$$
>  <MOLECULE>
Clc1ccc(Cl)c(N=C2NCCN2)c1

>  <logP>
2.04

$$$$
>  <MOLECULE>
S=C=NCc1cccc2ccccc12

>  <logP>
4.42

$$$$

Assign logP to the following record: NNC(=O)c1ccc(N)cc1
-0.75

Report logP for CC1CN(N=O)C(C)CN1N=O (stereo not given)
0.15

Specify reported logP for the molecule shown: Cc1cccc(OC2OC(CO)C(O)C(O)C2O)c1 (stereo not given)
-0.2

Give me measured logP, please, for this molecule: CC(C)CNCNC(=O)c1ccccc1
1.73

Input FC(F)(F)c1nc2c(Cl)cc(Cl)cc2[nH]1 , output reported logP.
3.49

Give logP for the following molecule: CCCCCCNC(=O)CNC(=O)C=[N+]=[N-]
1.51
